study system: CB1R (Homo sapiens, UniProt P21554)
Sequence (P21554 whole entry): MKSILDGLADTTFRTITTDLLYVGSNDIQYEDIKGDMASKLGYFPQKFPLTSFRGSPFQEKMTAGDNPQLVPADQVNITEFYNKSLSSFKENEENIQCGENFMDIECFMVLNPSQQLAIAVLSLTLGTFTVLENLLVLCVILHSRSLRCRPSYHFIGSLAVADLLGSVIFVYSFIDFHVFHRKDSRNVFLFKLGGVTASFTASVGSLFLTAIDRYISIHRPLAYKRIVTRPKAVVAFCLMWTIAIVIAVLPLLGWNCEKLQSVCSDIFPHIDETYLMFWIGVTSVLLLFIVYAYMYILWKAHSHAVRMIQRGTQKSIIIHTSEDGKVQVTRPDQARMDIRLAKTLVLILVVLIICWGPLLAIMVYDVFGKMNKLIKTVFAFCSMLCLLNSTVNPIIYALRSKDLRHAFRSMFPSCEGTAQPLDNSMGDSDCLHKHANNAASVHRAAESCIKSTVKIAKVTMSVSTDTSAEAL
experimental details: CB1R radioligand binding competition ([3H]CP55,940)
Set-up: host or cells: CHO-CB1 C3 cell line
test settings: percentage displacement of specific [3H]CP 55,940 binding at 1 μM, n = 2
Assign condition met whenever CB1R % at 1 μM does not fall below 4%; assign condition not met whenever it does.

**Q:** Answer whether CB1R % at 1 μM of COC(=O)[C@H]1CCCN1C(=O)c1cn(Cc2ccc(F)cc2)c2ccccc12 [15h] is greater than or equal to 4%.
**A:** condition met

**Q:** Answer whether CB1R % at 1 μM of COC(=O)[C@H]1CCCN1C(=O)c1nn(Cc2ccc(F)cc2)c2ccccc12 [15p] is greater than or equal to 4%.
**A:** condition met

**Q:** Answer whether CB1R % at 1 μM of NC(=O)[C@H]1CCCN1C(=O)c1nn(CC2CCCCC2)c2ccccc12 [17n] is greater than or equal to 4%.
**A:** condition not met

**Q:** Answer whether CB1R % at 1 μM of CCCCCn1nc(C(=O)N2CCCC[C@H]2C(N)=O)c2ccccc21 [18i] is greater than or equal to 4%.
**A:** condition not met

**Q:** Answer whether CB1R % at 1 μM of NC(=O)[C@@H]1CCCCN1C(=O)c1cn(CCCCCF)c2ccccc12 [18c] is greater than or equal to 4%.
**A:** condition met

**Q:** Answer whether CB1R % at 1 μM of NC(=O)[C@@H]1CCCCN1C(=O)c1cn(Cc2ccc(F)cc2)c2ccccc12 [18g] is greater than or equal to 4%.
**A:** condition met

**Q:** Answer whether CB1R % at 1 μM of COC(=O)[C@H]1CCCCN1C(=O)c1nn(CC2CCCCC2)c2ccccc12 [16n] is greater than or equal to 4%.
**A:** condition not met

**Q:** Answer whether CB1R % at 1 μM of NC(=O)[C@H]1CCCN1C(=O)c1cn(CC2CCCCC2)c2ccccc12 [17f] is greater than or equal to 4%.
**A:** condition not met

**Q:** Answer whether CB1R % at 1 μM of NC(=O)[C@H]1CCCCN1C(=O)c1cn(CC2CCCCC2)c2ccccc12 [18f] is greater than or equal to 4%.
**A:** condition met

**Q:** Answer whether CB1R % at 1 μM of NC(=O)[C@H]1CCCN1C(=O)c1cn(CCCCCF)c2ccccc12 [17d] is greater than or equal to 4%.
**A:** condition met

**Q:** Answer whether CB1R % at 1 μM of CCCCCn1nc(C(=O)N2CCC[C@@H]2C(N)=O)c2ccccc21 [17j] is greater than or equal to 4%.
**A:** condition not met

**Q:** Answer whether CB1R % at 1 μM of CCCCCn1cc(C(=O)N2CCCC[C@@H]2C(N)=O)c2ccccc21 [18b] is greater than or equal to 4%.
**A:** condition met

**Q:** Answer whether CB1R % at 1 μM of NC(=O)[C@@H]1CCCCN1C(=O)c1cn(CC2CCCCC2)c2ccccc12 [18e] is greater than or equal to 4%.
**A:** condition met

**Q:** Answer whether CB1R % at 1 μM of NC(=O)[C@@H]1CCCN1C(=O)c1cn(CCCCCF)c2ccccc12 [17c] is greater than or equal to 4%.
**A:** condition not met

// provenance: paper PMC12406204
